Catalogue of binders with associated EMax, OVCAR 5 cells (cAMP)
Target: T1, RXFP1 receptor (UniProt Q9HBX9 1-757, limits assumed)
T1 sequence (looked up): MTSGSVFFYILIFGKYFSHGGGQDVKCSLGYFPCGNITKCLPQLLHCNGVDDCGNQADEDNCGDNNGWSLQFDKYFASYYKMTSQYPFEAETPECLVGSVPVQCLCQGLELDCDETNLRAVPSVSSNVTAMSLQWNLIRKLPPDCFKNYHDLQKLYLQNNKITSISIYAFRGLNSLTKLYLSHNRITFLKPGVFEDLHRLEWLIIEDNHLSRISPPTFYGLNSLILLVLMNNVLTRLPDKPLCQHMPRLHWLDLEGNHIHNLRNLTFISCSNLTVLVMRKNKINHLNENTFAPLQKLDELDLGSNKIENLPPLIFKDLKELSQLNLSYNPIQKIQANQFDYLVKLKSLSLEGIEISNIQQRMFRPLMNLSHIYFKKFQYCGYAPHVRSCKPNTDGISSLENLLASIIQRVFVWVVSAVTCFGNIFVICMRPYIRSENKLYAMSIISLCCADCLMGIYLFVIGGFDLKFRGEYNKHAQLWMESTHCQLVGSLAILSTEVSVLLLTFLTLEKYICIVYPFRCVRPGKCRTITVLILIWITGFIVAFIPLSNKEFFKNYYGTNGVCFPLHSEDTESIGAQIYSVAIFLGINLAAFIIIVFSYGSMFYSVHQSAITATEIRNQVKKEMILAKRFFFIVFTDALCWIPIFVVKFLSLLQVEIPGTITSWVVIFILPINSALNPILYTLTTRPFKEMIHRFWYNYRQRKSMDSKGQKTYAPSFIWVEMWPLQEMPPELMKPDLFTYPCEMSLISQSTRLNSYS
Experiment: cell-based or functional assay
*1 amine or outer side, *2 acyl side, *3 side chain or, on linkers, in order; H or OH if unused. Primed or numbered codes have the meaning given here. Side-chain parts run from the residue outwards. [ ]: non-standard residue; d: D form. The star is where a group is joined. Lys(Me3) = C[N+](C)(C)CCCC[C@H](N)C(=O)O; γGlu = O=C(O)[C@H](CCC(=O)[*:2])N[*:1]; Arg(Me) = CNC(=N)NCCC[C@H](N)C(=O)O; Stearoyl = CCCCCCCCCCCCCCCCCC(=O)*; αMeK = C[C@](N)(CCCCN)C(=O)O; Nle = CCCC[C@H](N)C(=O)O; PEG2′ = PEG2 spacer unit; PEG2″ = not defined here; Aib = CC(C)(N)C(=O)O
# output: numeric value plus its unit

BINDER	EMax, OVCAR 5 cells (cAMP)
Ac-LEGREKVRAK(Ac)I[Aib][Aib]EG[Nle]STWS[Aib]RK(Ac)KK([PEG2″-PEG2″-γGlu-γGlu-γGlu-Stearoyl])-NH2 [peptide of SEQ ID NO: 72]	93%

Consider the record given below.
// query Query EMax, OVCAR 5 cells (cAMP) for Ac-LEGREKVRAK(Ac)I[Aib][Aib]EG[Nle]STWS[αMeK][Arg(Me)][Lys(Me3)]K(Ac)K([PEG2′-PEG2′-PEG2′-γGlu-γGlu-γGlu-Stearoyl])-NH2 [peptide of SEQ ID NO: 138]
// result 91%
